- system-name: XF0749 (virulence regulator) (Xylella fastidiosa, UniProt Q9PFC9 Q9PFC9:1-134)
- assay-comment: SPR
- recorded-conditions: tags: His6, E. coli; label: biotin
measured-parameter: pKd
// pKd is dimensionless: -log10 of concentration (M)

Enquiry: For 6H7 (ssDNA) DNA: GGTATTGAGGGTCGCATCGCTATGGGTGGTCTGGTTGGGATTGGCCCCGGGAGCTGGCGATGGCTCTAACTCTCCTCT , what is its reported pKd?
Return: 7.38
